src = PubChem BioAssay (NCI)

- Tested on: MCF7 breast
- assay.notes: NCI-60 one-dose screen, 48 h (100 = growth as untreated, 0 = no growth, -100 = all killed)
- applied.conditions: 10 µM unless noted
Compounds without any hit were thinned out: in the full panel of roughly 83,000, 20% have a hit.
quantity.kind: growth (%)
Answer with a number only, understood to be in %.

Known results for molecules:
Clc1ncn[nH]1 = 90.3
O=C1C(=O)c2ccc(Br)cc2-c2cc(Br)ccc21 = 0.468
O=C(c1ccccc1)c1ccccc1Cl = 107
Clc1cccc(Cc2cn3cc(-c4ccccc4)nc3s2)c1 = 21.1
COc1ccc(-c2csc(NC(=O)c3cc(O)c(O)c(O)c3)n2)cc1 = 60.6
O=C1OCCCCCCCCCC#Cc2ccccc21 = 164
O=C1c2nsnc2C(=O)c2c(F)c(F)c(F)c(F)c21 = -45.1
COc1cccc2c1O/C(=C\c1c([N+](=O)[O-])ncn1C)C2=O = 88.4
C=C(C[C@](O)(C(=O)/C=C/c1ccc(Cl)cc1)C(=O)OC)c1ccccc1 = 5.85
Cc1cc(NC(=O)Nc2cccc3ccccc23)no1 = 84

What value of growth has been reported for the following molecule? CCSc1nnc2n(Cc3ccccc3)c(=O)c3c(C)c(C(N)=O)sc3n12
96.8

What value of growth has been reported for the following molecule? c1csc([C@@H]2C[C@@H]3Cc4ccc5ccccc5c4N2O3)c1
99.8
